Data credit: patent US20190241669A1

- target: Human BCMA (human) (UniProt Q02223)
- experimental-details: SPR, IgG immobilised, huBCMA analyte, 37 C
Answer each item with its documented kon.
Answers are plain numbers, in M⁻¹ s⁻¹.

Looking up L3.PY/L3.KF/H2.LT (antibody, V domains shown, IgG) VH: EVQLLESGGGLVQPGGSLRLSCAASGFTFGSYAMTWVRQAPGKGLEWVSAISLTGGNTFYADSVKGRFTISRDNSKNTLYLQMNSLRAEDTAVYYCARVSPIASGMDYWGQGTLVTVSS VL: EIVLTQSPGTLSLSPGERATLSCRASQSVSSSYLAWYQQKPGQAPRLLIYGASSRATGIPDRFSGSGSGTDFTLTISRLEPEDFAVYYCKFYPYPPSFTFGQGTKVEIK , I found its kon recorded as 2.75e+06

Looking up L3.PY/L3.KF/H2.QL (antibody, V domains shown, IgG) VH: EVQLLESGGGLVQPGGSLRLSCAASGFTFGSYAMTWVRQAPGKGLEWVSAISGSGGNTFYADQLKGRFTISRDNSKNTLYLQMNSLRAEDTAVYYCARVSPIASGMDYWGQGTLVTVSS VL: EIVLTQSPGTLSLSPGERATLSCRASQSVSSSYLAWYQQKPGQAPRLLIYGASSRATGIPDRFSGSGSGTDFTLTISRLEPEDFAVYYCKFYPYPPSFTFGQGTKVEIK , I found its kon recorded as 2.07e+06

Looking up L3.PY/L3.KY/H2.DY (antibody, V domains shown, IgG) VH: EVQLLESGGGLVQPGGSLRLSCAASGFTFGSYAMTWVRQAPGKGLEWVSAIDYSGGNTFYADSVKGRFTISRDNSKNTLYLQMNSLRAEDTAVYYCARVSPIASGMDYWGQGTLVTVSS VL: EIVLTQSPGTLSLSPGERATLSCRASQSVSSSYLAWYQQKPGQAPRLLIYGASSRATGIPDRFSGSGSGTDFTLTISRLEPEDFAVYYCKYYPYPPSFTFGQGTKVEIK , I found its kon recorded as 3.19e+06

Parameters: items (list). Returns: kon for each item.
1. L3.PY/L1.FF/H2.LT (antibody, V domains shown, IgG) VH: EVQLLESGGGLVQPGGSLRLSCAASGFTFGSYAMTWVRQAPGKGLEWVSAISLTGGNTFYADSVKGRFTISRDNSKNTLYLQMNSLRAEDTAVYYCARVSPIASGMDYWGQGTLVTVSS VL: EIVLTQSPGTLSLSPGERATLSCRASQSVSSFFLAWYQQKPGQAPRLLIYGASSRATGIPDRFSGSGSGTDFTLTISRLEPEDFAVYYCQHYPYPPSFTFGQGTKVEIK
2. L3.PY/L1.FF/H3.YA (antibody, V domains shown, IgG) VH: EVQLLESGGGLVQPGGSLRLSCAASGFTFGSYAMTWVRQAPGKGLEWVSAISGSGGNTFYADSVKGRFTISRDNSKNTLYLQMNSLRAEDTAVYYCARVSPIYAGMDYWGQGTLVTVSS VL: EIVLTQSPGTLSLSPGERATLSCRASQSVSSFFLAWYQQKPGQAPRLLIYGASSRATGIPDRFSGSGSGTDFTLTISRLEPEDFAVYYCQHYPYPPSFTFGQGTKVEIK

3.3e+06
3.5e+06
